B1: Retinoic acid receptor beta, residues 85 to 161; numbered along this chain, P10826 (parent)
chain: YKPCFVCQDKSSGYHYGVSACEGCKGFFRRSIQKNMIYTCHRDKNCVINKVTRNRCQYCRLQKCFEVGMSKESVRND

# Variants of: B1
# experimental-protocol: abundance fitness (aPCA) (normalised: wild type 0, dead -1); higher = more abundant; growth selection in yeast, the domain comes from the species named
# test-conditions: Homo sapiens
observed-property: abundance fitness
Give bare numbers.

The cases that follow already have their abundance fitness on record.
Q57Y = 0.163
L61D = -0.516
N49Y = -0.37
V51T = 0.019
Y58Q = -0.259
R42M = 0.228
S11K = -0.242
G17A = -0.278

Parameter requested: abundance fitness. Apply to each item below.
1. N35D
2. H15G

1. 0.128
2. -0.25

Give me abundance fitness for each of these variants, listed below.
1. Q8F
2. Y58D
3. S11T
4. E22G
5. G23W
6. C59K

[-0.092, -0.131, -0.254, -0.325, -0.138, -0.998]

Look up abundance fitness for the entries below, preserving their order.
1. K2Y
2. K25L

-0.1
0.028

Sourced from the Human Domainome abundance scans (Beltran et al. 2025)
